# Tested on: TK-10 renal
# MEASUREMENT_NOTES: NCI-60 one-dose screen, 48 h (100 = growth as untreated, 0 = no growth, -100 = all killed)
# SETUP_CONDITIONS: 10 µM unless noted
The panel holds about 83,000 compounds, 20% with a hit somewhere; the sample as a whole holds those more often.
# growth listing for each entry below
OBSERVED_PROPERTY: growth (%)

> print(dat)
                                    compound          tgt  result
 1          CC(C)C(C)(C)C(=O)C(C)(C)C(C)(C)C  TK-10 renal    96.2
 2  C=COC(=O)CCOCC(CC)CCCC (stereo not given)  TK-10 renal     103
 3                   CCOc1ccncc1[N+](=O)[O-]  TK-10 renal     104
 4   CCCc1cccc(CCC)c1NC(=O)Nc1cc(Cl)cc(Cl)c1  TK-10 renal     106
 5  CN1C(=O)NC(c2ccc(Cl)cc2)(c2ccc(Cl)cc2)C1=O  TK-10 renal     129
 6  CCOC(=O)/C(O)=C(\C=N\C(=S)Nc1ccc(Cl)c(Cl)c1)C(=O)OCC  TK-10 renal     117
 7  O=C(Nc1ccc([N+](=O)[O-])cc1)C(=O)Nc1ccc([N+](=O)[O-])cc1  TK-10 renal    98.5
 8                       CCOC(=O)C1(N)CCCCC1  TK-10 renal    96.3
 9         Cc1c(Cl)cccc1NC(=S)NC(=O)c1ccccc1  TK-10 renal    93.5
10                  CCCCn1cnc2c(=O)[nH]cnc21  TK-10 renal     109
11  CC(=O)NNC(=S)N/C=C/c1c(C)ccc([N+](=O)[O-])c1[N+](=O)[O-]  TK-10 renal     118
12                       S=C=Nc1ccc2ccccc2c1  TK-10 renal     109
13        O=c1[nH]c(=O)c2cc(Cl)cc(Cl)c2[nH]1  TK-10 renal    97.6
14  CC(C)(C)[Si](C)(C)OCC1OC(n2cnc3c(N)ncnc32)CC1OS(C)(=O)=O (stereo not given)  TK-10 renal    99.7
15                           CC(=O)NCNC(C)=O  TK-10 renal     115
16                         O=Cc1ccc(O)c(O)c1  TK-10 renal     107
17    COc1cccc(C(=O)NNC(=O)c2cccc3ccccc23)c1  TK-10 renal     120
18                        CC(=O)c1cc(O)ccc1O  TK-10 renal    93.6
19            CCCCc1ccc2nc(NC(=O)OC)[nH]c2c1  TK-10 renal    57.6
20  CC12CCC3c4ccc(O)cc4CCC3C1CCC2=O (stereo not given)  TK-10 renal    91.1
21   Cc1ccc2nc(-c3ccc(N=Cc4ccccc4O)cc3)sc2c1  TK-10 renal     139
22                        C1C[S+]2CC[S+]1CC2  TK-10 renal    97.9
23              Cc1ccnc(Nc2nc3ccccc3[nH]2)n1  TK-10 renal     113
24  CC(=O)c1cccc(N(C)S(=O)(=O)c2ccc(C)cc2)c1  TK-10 renal    90.4
25           CCCCNc1ccc(-c2ccc(NCCCC)cc2)cc1  TK-10 renal      92
26  FC(F)(F)c1cc(NC2=NCCN=C(Nc3cc(C(F)(F)F)cc(C(F)(F)F)c3)SS2)cc(C(F)(F)F)c1  TK-10 renal    58.4
27  Nc1c(O)c(S(=O)(=O)O)c(O)c2c1C(=O)c1ccccc1C2=O  TK-10 renal    21.7
28              CC(=O)Oc1c(Cl)cccc1-c1ccccc1  TK-10 renal     107
29                           CCCOCc1cn[nH]n1  TK-10 renal     102
30       Clc1ccc(C(SCc2ccccc2)SCc2ccccc2)cc1  TK-10 renal     104

These measurements were taken from PubChem BioAssay (NCI).
